Data credit: paper PMC6533572

Experiment: Pharmacokinetic study after i.v. injection in normal and DEN-injured rats
Type: in vivo, Sprague Dawley rats
Conditions: male, Sprague Dawley, rat, plasma, iv, 2.5 mg/kg, normal rats, i.v. 2.5 mg/kg, two-compartment model
assay.metric: C0 (ng/mL)

smiles_notation=CC(=O)O[C@H]1[C@H]2O[C@]23[C@@H]2CC[C@]4(O)C[C@@H](O)CC[C@]4(C)[C@H]2CC[C@]3(C)[C@H]1c1ccc(=O)oc1 assay_metric=C0 observed=1400

###

Experiment: Bidirectional transport across MDCK II cell monolayers
Format: in vitro ADME, canine
Details: dog, pH 7.4, with verapamil (concentration not stated), in both compartments, cinobufotalin 20 μM, with verapamil, read-out: ER
assay.metric: efflux ratio at 120 min, 20 μM

smiles_notation=CC(=O)O[C@H]1[C@H]2O[C@]23[C@@H]2CC[C@]4(O)C[C@@H](O)CC[C@]4(C)[C@H]2CC[C@]3(C)[C@H]1c1ccc(=O)oc1 assay_metric="efflux ratio at 120 min, 20 μM" observed=1.1

###

Assay: Pharmacokinetic study after i.v. injection in normal and DEN-injured rats
Assay type: in vivo, Sprague Dawley rats
Conditions: male, Sprague Dawley, rat, plasma, iv, 2.5 mg/kg, DEN-injured rats, i.v. 2.5 mg/kg, two-compartment model; read-out: t1/2β (converted)
Experimental: Male Sprague Dawley rats (200–220 g), used for pharmacokinetic (PK) studies, were purchased from Beijing Vital River Laboratory Animal Technology Co., Ltd. (Beijing, China). All animals were housed under standardized condition (12 h light/dark schedule), and they were kept 1 week prior to experiments for acclimation. […]
assay.metric: half-life (h)

smiles_notation=CC(=O)O[C@H]1[C@H]2O[C@]23[C@@H]2CC[C@]4(O)C[C@@H](O)CC[C@]4(C)[C@H]2CC[C@]3(C)[C@H]1c1ccc(=O)oc1 units_symbol=h observed=13.4

###

Assay: Bidirectional transport across MDCK II cell monolayers
Format: in vitro ADME, canine
Conditions: dog, pH 7.4, with verapamil (concentration not stated), in both compartments, cinobufotalin 20 μM, with verapamil
assay.metric: Papp B→A at 120 min, 20 μM

smiles_notation=CC(=O)O[C@H]1[C@H]2O[C@]23[C@@H]2CC[C@]4(O)C[C@@H](O)CC[C@]4(C)[C@H]2CC[C@]3(C)[C@H]1c1ccc(=O)oc1 assay_metric="Papp B→A at 120 min, 20 μM" observed="248 nm/s"

###

Target: P-glycoprotein (P-gp) (Homo sapiens, UniProt P08183)
Construct: expressed in transfected cells; host or cells: MDCK II (Madin Darby canine kidney) cells stably transfected with the MDR1 gene
Sequence (P08183 whole entry): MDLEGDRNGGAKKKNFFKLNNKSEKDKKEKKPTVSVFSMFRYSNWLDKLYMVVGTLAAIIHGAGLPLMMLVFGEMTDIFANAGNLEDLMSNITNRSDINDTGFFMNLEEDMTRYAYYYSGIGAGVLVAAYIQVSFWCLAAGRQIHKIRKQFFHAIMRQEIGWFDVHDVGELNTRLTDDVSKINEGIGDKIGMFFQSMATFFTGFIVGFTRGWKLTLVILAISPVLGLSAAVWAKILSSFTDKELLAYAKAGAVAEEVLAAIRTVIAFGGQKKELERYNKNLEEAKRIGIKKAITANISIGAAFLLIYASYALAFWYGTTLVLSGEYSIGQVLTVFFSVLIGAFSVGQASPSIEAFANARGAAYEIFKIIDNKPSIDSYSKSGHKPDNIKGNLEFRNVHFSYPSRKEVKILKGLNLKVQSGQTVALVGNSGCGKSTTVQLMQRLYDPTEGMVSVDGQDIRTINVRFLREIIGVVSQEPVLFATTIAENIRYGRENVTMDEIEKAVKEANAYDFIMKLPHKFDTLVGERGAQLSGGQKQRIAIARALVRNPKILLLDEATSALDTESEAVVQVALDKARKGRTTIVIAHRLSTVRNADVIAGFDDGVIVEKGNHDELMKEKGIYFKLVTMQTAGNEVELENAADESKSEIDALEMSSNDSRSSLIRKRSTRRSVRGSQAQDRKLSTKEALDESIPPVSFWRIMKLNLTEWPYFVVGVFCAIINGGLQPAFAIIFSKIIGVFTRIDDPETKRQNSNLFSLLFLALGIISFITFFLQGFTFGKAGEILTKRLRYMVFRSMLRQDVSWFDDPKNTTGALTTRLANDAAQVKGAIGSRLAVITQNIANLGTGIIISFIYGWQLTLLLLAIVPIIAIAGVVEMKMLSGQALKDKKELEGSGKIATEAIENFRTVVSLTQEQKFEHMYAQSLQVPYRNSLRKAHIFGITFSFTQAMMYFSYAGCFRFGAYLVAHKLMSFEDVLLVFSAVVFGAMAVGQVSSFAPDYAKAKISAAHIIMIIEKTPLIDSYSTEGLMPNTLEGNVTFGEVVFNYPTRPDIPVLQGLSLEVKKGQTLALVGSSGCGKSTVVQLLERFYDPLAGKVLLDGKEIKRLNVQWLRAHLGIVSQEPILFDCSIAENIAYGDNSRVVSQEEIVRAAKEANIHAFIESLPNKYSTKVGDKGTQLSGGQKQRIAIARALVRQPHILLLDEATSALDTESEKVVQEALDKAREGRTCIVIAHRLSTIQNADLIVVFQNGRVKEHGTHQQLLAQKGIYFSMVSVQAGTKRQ
Experiment: Bidirectional transport across MDCK-MDR1 cell monolayers
Type: in vitro ADME
Conditions: dog, pH 7.4, with verapamil (concentration not stated), in both compartments; MDCK-MDR1, cinobufotalin 20 μM, with verapamil
assay.metric: Papp A→B at 120 min, 20 μM (×10⁻⁶ cm/s)

smiles_notation=CC(=O)O[C@H]1[C@H]2O[C@]23[C@@H]2CC[C@]4(O)C[C@@H](O)CC[C@]4(C)[C@H]2CC[C@]3(C)[C@H]1c1ccc(=O)oc1 observed=32.1

###

Test: Pharmacokinetic study after i.v. injection in normal and DEN-injured rats
Assay type: in vivo, Sprague Dawley rats
Settings: male, Sprague Dawley, rat, plasma, iv, 2.5 mg/kg, DEN-injured rats, i.v. 2.5 mg/kg, two-compartment model
assay.metric: AUC

smiles_notation=CC(=O)O[C@H]1[C@H]2O[C@]23[C@@H]2CC[C@]4(O)C[C@@H](O)CC[C@]4(C)[C@H]2CC[C@]3(C)[C@H]1c1ccc(=O)oc1 observed="1100 ng·h/mL"
